Target: T1, Ac-VQIINK-NH2
T1 peptide: Ac-VQIINK-NH2
Assay: cell-based or functional assay
readout-kind: IC50 (µM), VQIINK Inhibition (ThT)
Give bare numbers, in µM.

Please review the entries below; each comes with its answer.
Given the binder WIRLYWRW , what is its reported IC50 (µM), VQIINK Inhibition (ThT)? 1.86

Given the binder RYRIWIW , what is its reported IC50 (µM), VQIINK Inhibition (ThT)? 5.74

Given the binder WRFRLYLR , what is its reported IC50 (µM), VQIINK Inhibition (ThT)? 2.81

Provide IC50 (µM), VQIINK Inhibition (ThT) for all items below, preserving their order.
1. WRARIRW
2. WKIHIWWR

[5.77, 2.01]
